Source: ChEMBL document CHEMBL1781963

Reported dose excreted at 24 h values are given for each entry in this list.
experiment: Drug excretion in human urine after 24 hrs; format: ADME, tissue-based; conditions: read-out: Activity

>>> meas_value("Cc1ccc(CNC(=O)c2nn(-c3ccc(F)cc3)c(CC[C@@H](O)C[C@@H](O)CC(=O)O)c2C(C)C)cc1")
"12%"

Continue with the compound presented below.
Req: Would you kindly share the measured dose excreted at 24 h for "O=C([O-])C[C@H](O)C[C@H](O)CCn1c(-c2ccc(F)cc2)nc(C(=O)NCc2cccc(F)c2)c1C1CC1.[Na+]" ?
Resp: < 1%

---

Parameter uptake ratio at 10 µM: see the listing below.
Target: OATP1B2 (Rattus norvegicus, UniProt Q9QZX8)
Sequence (Q9QZX8 whole entry): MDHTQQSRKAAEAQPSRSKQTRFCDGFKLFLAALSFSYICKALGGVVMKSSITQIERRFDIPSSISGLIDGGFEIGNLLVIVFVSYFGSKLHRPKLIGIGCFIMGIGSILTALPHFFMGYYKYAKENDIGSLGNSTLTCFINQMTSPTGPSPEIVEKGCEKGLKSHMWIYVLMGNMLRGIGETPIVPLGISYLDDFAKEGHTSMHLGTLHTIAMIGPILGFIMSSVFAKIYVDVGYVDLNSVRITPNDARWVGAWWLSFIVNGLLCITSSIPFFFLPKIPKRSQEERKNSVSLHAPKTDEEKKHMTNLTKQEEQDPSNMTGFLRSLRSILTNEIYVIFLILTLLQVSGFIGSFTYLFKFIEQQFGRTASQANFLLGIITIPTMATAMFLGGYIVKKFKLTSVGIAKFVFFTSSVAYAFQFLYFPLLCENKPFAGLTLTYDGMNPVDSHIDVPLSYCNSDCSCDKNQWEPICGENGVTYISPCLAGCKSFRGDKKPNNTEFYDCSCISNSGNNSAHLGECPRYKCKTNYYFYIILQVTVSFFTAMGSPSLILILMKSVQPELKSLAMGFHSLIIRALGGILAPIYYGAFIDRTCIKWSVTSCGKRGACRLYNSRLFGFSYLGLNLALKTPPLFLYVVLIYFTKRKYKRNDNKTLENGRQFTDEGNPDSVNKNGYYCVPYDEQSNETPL
Assay: Drug uptake by rat hepatic OATP1B2 transporters expressed in CHO cells at 10 uM relative to wild type CHO cells
Format: ADME, cell-based
Conditions: CHO cells expressing rat OATP1B2, read-out: FC
Just the number.

>>> meas_value("O=C([O-])C[C@H](O)C[C@H](O)CCn1c(-c2ccc(F)cc2)nc(C(=O)NCc2cccc(F)c2)c1C1CC1.[Na+]")
1.7

Req: Data request, read-out uptake ratio at 10 µM, for Cc1ncc2n1-c1ccc(Cl)cc1C(c1ccccc1F)=NC2 [MIDAZOLAM]
Resp: 1.3

Req: Check CC[C@H](C)C(=O)O[C@H]1C[C@H](O)C=C2C=C[C@H](C)[C@H](CC[C@@H](O)C[C@@H](O)CC(=O)O)[C@H]21 [PRAVASTATIN] too.
Resp: 7

Req: // next record "Cc1ccc(CNC(=O)c2nn(-c3ccc(F)cc3)c(CC[C@@H](O)C[C@@H](O)CC(=O)O)c2C(C)C)cc1"
Resp: 2.6

---

test system: L6; assay: Inhibition of cholesterol synthesis in rat L6 cells assessed as reduction of [14C]-cholesterol level using [14C]-acetic acid preincubated for 3 hrs before addition of [14C]-acetic acid by scintillation counting; type: functional, cell-based
pIC50: −log10 of the molar value.
Kind request: treat 6 as inclusive, so pIC50 at 6 or higher is Fulfilled, anything lower is Not fulfilled.

Worked examples, 4 molecules total:
>>> class_label("O=C([O-])C[C@H](O)C[C@H](O)CCn1c(-c2ccc(F)cc2)nc(C(=O)NCc2ccc(F)cc2)c1C1CC1.[Na+]")
"Not fulfilled"
>>> class_label("O=C([O-])C[C@H](O)C[C@H](O)CCn1c(-c2ccc(F)cc2)nc(C(=O)NCc2ccc(F)cc2F)c1C1CC1.[Na+]")
"Not fulfilled"
>>> class_label("NC(=O)c1ccc(CNC(=O)c2nc(-c3ccc(F)cc3)n(CC[C@@H](O)C[C@@H](O)CC(=O)[O-])c2C2CC2)cc1.[Na+]")
"Not fulfilled"
>>> class_label("O=C(O)C[C@H](O)C[C@H](O)CCn1c(-c2ccc(F)cc2)nc(C(=O)NCc2ccccc2F)c1C1CC1")
"Not fulfilled"

Req: In plain terms: is recorded pIC50 at least 6 for "COc1ccc(CNC(=O)c2nc(-c3ccc(F)cc3)n(CC[C@@H](O)C[C@@H](O)CC(=O)[O-])c2C2CC2)cc1.[Na+]" ?
Resp: Not fulfilled
